The reported measurements were obtained from patent US5171882A.

- system-name: specific receptor on the membrane of human neutrophils (leukotriene B4) (Homo sapiens)
- Construct: Freshly-prepared buffy coat layers from two individuals were obtained from a local blood donor center; endogenous in cells; host or cells: intact human peripheral blood neutrophils from buffy coats of two donors
- method-summary: Inhibition of Binding of ^3 H-LTB4 to Peripheral Human Neutrophils
- study-conditions: drug concentration 10^-6 M; 0.1-0.2 nM ^3 H-LTB4, 10 minutes at 4° C; read-out: LTB4 Binding Inhibition
Each entry below carries its recorded inhibition at 1 µM.
Give the quantity in %, number only.

Here's what some known entries look like.
CCCCCCCCCCOc1ccc(C(=O)c2cccc(C(=O)O)c2)cc1Cc1nnn[nH]1
26
COc1cccc(CCCCCCOc2ccc(C(=O)c3cccc(C(=O)O)c3)cc2CCC(=O)O)c1
88
COc1ccc(CCCCCCOc2ccc(C(=O)c3cccc(C(=O)O)c3)cc2CCC(=O)O)cc1
98
CCCCCCCCCCOc1ccc(C(=O)c2ccccc2C(=O)O)cc1CC(=O)OCC
-6

# input Would you mind telling me what inhibition at 1 µM value was observed for `CS(=O)(=O)c1ccc(C=CCCCCOc2ccc(C(=O)c3cccc(C(=O)O)c3)cc2CCC(=O)O)cc1` ?
# output 88

# input Entry to check: `CCCCCCCCCCCCCCOc1ccc(C(=O)c2cccc(C(=O)O)c2)cc1CC(=O)O`
# output 10

# input Entry to check: `CCCCCCCCCCOc1ccc(C(=O)c2ccccc2CC(=O)O)cc1CCC(=O)O`
# output 79

# input Entry to check: `CCCCCCCCCCOc1ccc(C(=O)c2cccc(C#N)c2)cc1CC#N`
# output -1

----------
- Test system: LTB4 induced cell aggregation (neutrophils)
- method-summary: LTB4 Induced Aggregation Assay (neutrophils)
- Assay type: cell-based, guinea pig
- study-conditions: Cavia porcellus, Neutrophil; drug concentration 10^-5 M
Each entry below carries its recorded inhibition at 10 µM.
Give the quantity in %, number only.

CCCCCCCCCCOc1ccc(C(O)c2ccc(C(=O)O)cc2)cc1CC(=O)O (stereo not shown)
80
C[S+]([O-])c1ccc(C=CCCCCOc2ccc(C(=O)c3cccc(C(=O)O)c3)cc2CCC(=O)O)cc1 (stereo not shown)
85
O=C(O)CCc1cc(C(=O)c2cccc(C(=O)O)c2)ccc1OCCCCCCc1ccccc1
93

Let us examine a further case.
# input Would you mind telling me what inhibition at 10 µM value was observed for CCCCCCCCCCOc1ccc(C(O)c2cccc(C(=O)O)c2)cc1CC(=O)O (stereo not shown) ?
# output 77

----------
- system-name: LTD4 receptors (Cavia porcellus)
- Construct: A section of terminal ileum was removed, the lumen cleaned, and the tissue divided into 2.5 cm segments; from tissue; host or cells: ileum and trachea of guinea pig (ileum: male Hartley)
- Sequence (Q2NNR5 whole entry): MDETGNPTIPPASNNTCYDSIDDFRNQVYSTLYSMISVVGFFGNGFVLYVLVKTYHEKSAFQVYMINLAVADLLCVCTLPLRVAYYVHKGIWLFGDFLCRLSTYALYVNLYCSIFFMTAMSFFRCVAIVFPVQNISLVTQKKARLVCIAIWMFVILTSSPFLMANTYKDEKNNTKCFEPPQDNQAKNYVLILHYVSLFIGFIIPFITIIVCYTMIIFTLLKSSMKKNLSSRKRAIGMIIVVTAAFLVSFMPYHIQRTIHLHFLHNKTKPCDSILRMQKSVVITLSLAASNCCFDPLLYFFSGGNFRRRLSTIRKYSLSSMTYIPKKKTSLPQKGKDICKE
- method-summary: Antagonism of LTD4 (guinea pig ileum and trachea, pA2)
- study-conditions: *Estimated; negative log of KB; antagonist 30 minute incubation
- Experimental: Male, Hartley guinea pigs weighing 200-450 grams were killed by decapitation. A section of terminal ileum was removed, the lumen cleaned, and the tissue divided into 2.5 cm segments. […] Isometric measurements were made with a Grass FT03C. force-displacement transducer and recorded on a Grass polygraph as change in grams of force. […] A more detailed analysis of LTD4 antagonism was then made. […] KB values were calculated by the method of Furchgott [Ann. […]
Decide using Kb: a value greater than or equal to 1000 nM is fulfilled, a smaller one is not fulfilled.

CCCCCCCCCCOc1ccc(C(=O)c2ccccc2CC(=O)O)cc1CCC(=O)O
fulfilled
CCOC(=O)CCc1cc(C(=O)c2cccc(C(=O)OCC)c2)ccc1OCCCCCCc1ccc(Cl)cc1
not fulfilled
CCCCCCCCCCOc1ccc(C(=NO)c2cccc(C(=O)O)c2)cc1CCC(=O)O
not fulfilled
CCCCCCCCCCOc1ccc(C(O)c2cccc(C(=O)O)c2)cc1CC(=O)O (centres unmarked)
fulfilled
CCCCCCCCCCOc1ccc(C(=O)c2cccc(C(=O)O)c2)c(CC(=O)O)c1
fulfilled
CCCCCCCCCCOc1ccc(C(=O)Cc2ccccc2C(=O)O)cc1CCC(=O)O
fulfilled

# input Evaluate `CCCCCCCCCCOc1ccc(C(=O)c2cccc(-c3nnn[nH]3)c2)cc1CC(=O)O` : Kb at minimum 1000 nM?
# output not fulfilled

----------
- system-name: specific receptor on the membrane of human neutrophils (leukotriene B4) (Homo sapiens, UniProt Q15722)
- Construct: Freshly-prepared buffy coat layers from two individuals were obtained from a local blood donor center; endogenous in cells; host or cells: intact human peripheral blood neutrophils from buffy coats of two donors
- Sequence (Q15722 whole entry): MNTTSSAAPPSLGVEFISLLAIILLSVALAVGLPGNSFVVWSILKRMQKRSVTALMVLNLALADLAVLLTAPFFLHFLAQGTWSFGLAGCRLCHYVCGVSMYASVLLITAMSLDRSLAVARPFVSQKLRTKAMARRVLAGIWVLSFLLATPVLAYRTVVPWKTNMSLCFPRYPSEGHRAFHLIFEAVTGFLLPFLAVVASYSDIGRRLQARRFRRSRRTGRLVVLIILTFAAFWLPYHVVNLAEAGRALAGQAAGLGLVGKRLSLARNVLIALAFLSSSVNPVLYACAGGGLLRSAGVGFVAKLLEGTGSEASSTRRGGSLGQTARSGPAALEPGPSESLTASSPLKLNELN
- method-summary: Inhibition of Binding of ^3 H-LTB4 to Peripheral Human Neutrophils
- study-conditions: drug concentration 10^-6 M; 0.1-0.2 nM ^3 H-LTB4, 10 minutes at 4° C; read-out: LTB4 Binding Inhibition
Decide using inhibition at 1 µM: a value greater than or equal to 20% is Criterion met, a smaller one is Criterion not met.

Sample answers from the record:
CCCCCCCCCCOc1ccc(C(=O)c2cccc(C(=O)O)c2)cc1CCC(=O)O
Criterion met
CC(=O)c1ccc(CCCCCCOc2ccc(C(=O)c3cccc(C(=O)O)c3)cc2CCC(=O)O)cc1
Criterion met
CCCCCCCCCCOc1ccc(C(O)c2cccc(C(=O)O)c2)cc1CC(=O)O (stereo not drawn)
Criterion not met

# input Evaluate `CCCCCCCCCCOc1ccc(C(=O)c2cccc(-c3nnn[nH]3)c2)cc1CCC(=O)O` : inhibition at 1 µM at minimum 20%?
# output Criterion met

# input Entry to check: `O=C(O)CCc1cc(C(=O)c2cccc(C(=O)O)c2)ccc1OCCCCS(=O)(=O)c1ccccc1`
# output Criterion not met

----------
Each entry below carries its recorded inhibition at 10 µM.
- Tested on: LTB4 induced cell aggregation (neutrophils)
- method-summary: LTB4 Induced Aggregation Assay (neutrophils)
- Format: cell-based, guinea pig
- study-conditions: Cavia porcellus, Neutrophil; drug concentration 10^-5 M

CCCCCCCCCCOc1ccc(C(=NO)c2cccc(C(=O)O)c2)cc1CCC(=O)O
94%
COc1ccc(C=CCCCCOc2ccc(C(=O)c3cccc(C(=O)O)c3)cc2CCC(=O)O)cc1
92%
O=C(O)CCc1cc(C(=O)c2cccc(C(=O)O)c2)ccc1OCCCCCCc1ccc(Cl)cc1
76%

Let us examine a further case.
# input Would you mind telling me what inhibition at 10 µM value was observed for `CCCCCCCCCCOc1ccc(C(=O)c2cccc(C(=O)O)c2)cc1CCCC(=O)O` ?
# output 92%

----------
- Test system: LTB4 induced cell aggregation (neutrophils)
- method-summary: LTB4 Induced Aggregation Assay (neutrophils)
- Assay type: cell-based, guinea pig
- study-conditions: Cavia porcellus, Neutrophil; drug concentration 10^-6 M
Each entry below carries its recorded inhibition at 1 µM.
Give the quantity in %, number only.

Here's what some known entries look like.
O=C(O)CCc1cc(C(=O)c2cccc(C(=O)O)c2)ccc1OCCCCCCc1ccc(Cl)cc1
63
CCCCCCCCCCOc1ccc(C(=O)c2ccccc2C(=O)O)cc1CC(=O)O
78
CCCCCCCCCCOc1ccc(C(=O)c2ccccc2CC(=O)O)cc1CCC(=O)O
94
C=C(c1cccc(C(=O)O)c1)c1ccc(OCCCCCCCCCC)c(CCC(=O)O)c1
88

# input Which measured inhibition at 1 µM belongs to CCCCCCCCCCOc1ccc(C(O)c2cccc(C(=O)O)c2)cc1CCC(=O)O (centres unmarked) , tested on LTB4 induced cell aggregation (neutrophils)?
# output 73

# input Entry to check: `CCCCCCCCCCOc1ccc(C(=O)c2cccc(-c3nnn[nH]3)c2)cc1CCC(=O)O`
# output 72

# input Entry to check: CCCCCCCCCCOc1ccc(C(O)c2cccc(C(=O)O)c2)cc1CC(=O)O (centres unmarked)
# output 11

# input Entry to check: C[S+]([O-])c1ccc(C=CCCCCOc2ccc(C(=O)c3cccc(C(=O)O)c3)cc2CCC(=O)O)cc1 (centres unmarked)
# output 79

----------
- system-name: specific receptor on the membrane of human neutrophils (leukotriene B4) (Homo sapiens, UniProt Q15722)
- Construct: Freshly-prepared buffy coat layers from two individuals were obtained from a local blood donor center; endogenous in cells; host or cells: intact human peripheral blood neutrophils from buffy coats of two donors
- method-summary: Inhibition of Binding of ^3 H-LTB4 to Peripheral Human Neutrophils
- study-conditions: drug concentration 10^-5 M; 0.1-0.2 nM ^3 H-LTB4, 10 minutes at 4° C; read-out: LTB4 Binding Inhibition
Each entry below carries its recorded inhibition at 10 µM.
Give the quantity in %, number only.

Here's what some known entries look like.
C=C(c1cccc(C(=O)O)c1)c1ccc(OCCCCCCCCCC)c(CCC(=O)O)c1
71
O=C(O)CCc1cc(C(=O)c2cccc(C(=O)O)c2)ccc1OCCCCS(=O)(=O)c1ccccc1
18
CCCCCCCCCCOc1ccc(C(=O)c2cccc(C#N)c2)cc1CC#N
3
CCCCCCCCOc1ccc(C(O)c2cccc(C(=O)O)c2)cc1CC(=O)O (stereo not drawn)
41
CCCCCCOc1ccc(C(O)c2cccc(C(=O)O)c2)cc1CC(=O)O (stereo not drawn)
10
CCCCCCCCCCOc1ccc(C(O)c2cccc(C(=O)O)c2)cc1CCC(=O)O (stereo not drawn)
91
CCCCCCCCCCOc1ccc(C(=O)c2cccc(C(=O)O)c2)cc1Cc1nnn[nH]1
76
O=C(O)CCc1cc(NC(=O)c2cccc(C(=O)O)c2)ccc1OCCCCCCc1ccccc1
98

# input Would you mind telling me what inhibition at 10 µM value was observed for `CCCCCCCCCCOc1ccc(Oc2cccc(C(=O)O)c2)cc1CCC(=O)O` ?
# output 88

# input Entry to check: `O=C(O)CCc1cc(C(=O)c2cccc(C(=O)O)c2)ccc1OCCCCCCc1ccc(F)cc1`
# output 104

# input Entry to check: `COc1cccc(CCCCCCOc2ccc(C(=O)c3cccc(C(=O)O)c3)cc2CCC(=O)O)c1`
# output 95

# input Entry to check: `CCCCCCCCCCOc1ccc(C(=O)c2cccc(C(=O)O)c2)cc1CCc1nnn[nH]1`
# output 96

# input Entry to check: `COc1cccc(C=CCCCCOc2ccc(C(=O)c3cccc(C(=O)O)c3)cc2CCC(=O)O)c1`
# output 99

# input Entry to check: `CCCCCCCCCCOc1ccc(C(=O)c2cccc(C(=O)O)c2)c(CC(=O)O)c1`
# output 74

# input Entry to check: `CCCCCCCCCCOc1ccc(C(=O)c2cccc(-c3nnn[nH]3)c2)cc1CCC(=O)O`
# output 98
